Listing: T/C of selected compounds
Test system: P388 leukemia ip, CD2F1 mice, survival T/C
Experiment: NCI In Vivo Anticancer Drug Screen. Data for tumor model P388 Leukemia (intraperitoneal) in CD2F1 (CDF1) mice
Conditions: endpoint: median survival time; dose: 12.5 mg/kg/injection; schedule: Q01DX009 (ip); vehicle: saline; higher = longer survival
Toxic doses and inconclusive results are not listed.

Reference set, count: 3
CNC(=O)OC1CC2CCCCC2C([N+](C)(C)C)C1 (stereo not drawn): 105 % of control
Nc1cc(=O)c2[nH]cnc2[nH]1: 103 % of control
CC1(C)N=C(N)N=C(N)N1c1ccc(Cl)c(C(F)(F)F)c1: 124 % of control

Record request: T/C value, item O=S(=O)(O)O.[N-]=C(N)/N=C(\[NH-])N.[N-]=C(N)/N=C(\[NH-])N.[N-]=C(N)NC(=[N-])N.[Rh+3]
100 % of control

Record request: T/C value, item O=[N+]([O-])c1c(Sc2ncccn2)ncnc1Sc1ncccn1
114 % of control

----------
Tested on: P388 leukemia ip, CD2F1 mice, survival T/C
Test: NCI In Vivo Anticancer Drug Screen. Data for tumor model P388 Leukemia (intraperitoneal) in CD2F1 (CDF1) mice
Details: endpoint: median survival time; dose: 50.0 mg/kg/injection; schedule: Q01DX005 (ip); vehicle: saline with Tween-80; higher = longer survival
Toxic doses and inconclusive results are not listed.
Measured Property: T/C

Reference set, count: 10
Cn1cccc1/C=N/N1CC(=O)N(c2ccccc2)CC1=O: 108 % of control
COC(=O)C1(c2ccccc2)OP2(N(C)C)(OC1(C(=O)OC)c1ccccc1)N(C)CCN2C (stereo unspecified): 102 % of control
CN(CCN1C(=O)c2cccc3cccc(c23)C1=O)CCN1C(=O)c2cccc3cccc(c23)C1=O: 95 % of control
Cc1ccc(S(=O)(=O)OCC(OS(=O)(=O)c2ccc(C)cc2)C2OC3OC(C)(C)OC3C2O)cc1 (stereo unspecified): 103 % of control
O=C(O)CCCc1ccc2ccc3cccc4ccc1c2c34: 102 % of control
CC1=C[C@@H]2c3cccc4c3c(cn4C)C[C@H]2N(C)C1: 99 % of control
C=C(C)CNC(=O)C(C)O (stereo unspecified): 97 % of control
C#Cc1cccc(N=Cc2cc([N+](=O)[O-])ccc2O)c1: 100 % of control
CCOC(=O)c1cc(Br)c(=O)n(C)c1: 96 % of control
CCOC(=O)c1cc(-c2ccccc2)c(OC)c(=O)nc1-c1ccccc1: 100 % of control

// next item, T/C requested
What T/C appears in the records for this compound with P388 leukemia ip, CD2F1 mice, survival T/C? CC(C)CC(NC(=O)C(Cc1cnc[nH]1)N(C(=O)OCc1ccccc1)C(=O)OCc1ccccc1)C(=O)NN (stereo unspecified)
101 % of control

----------
Tested on: P388 leukemia ip, CD2F1 mice, survival T/C
Assay: NCI In Vivo Anticancer Drug Screen. Data for tumor model P388 Leukemia (intraperitoneal) in CD2F1 (CDF1) mice
Conditions: endpoint: median survival time; dose: 25.0 mg/kg/injection; schedule: Q01DX005 (ip); vehicle: Klucel (hydroxypropylcellulose) (HPC); higher = longer survival
Toxic doses and inconclusive results are not listed.
Measured Property: T/C

Record request: T/C value, item CN(CCCCC1CCCN(C(=O)c2ccccc2)C1)C(=O)c1ccccc1 (configuration not stated)
94 % of control
